B1: TEKT4 (parent)
chain: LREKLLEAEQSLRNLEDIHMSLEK

variants of: B1; assay: protein stability index of a GFP-peptide fusion (GPS, HEK-293T) (PSI 1-6); higher = more stable; details: c terminus: a fixed tail appended;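 further: lentivirally expressed fusions sorted by FACS into six bins by GFP to DsRed ratio, PSI derived from sequencing read proportions per bin multiplied by bin number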
Please provide measured protein stability index for the entries that follow.
# answer = number (no unit)

Q: Given the entry "D17M" , report its measured protein stability index.
Result: 2.42

Q: # lookup: protein stability index of "E23R"
Result: 3.15

Q: Return reported protein stability index; argument: "L6V"
Result: 2.65

Q: Look up protein stability index for this variant: "L15A"
Result: 3.2

Q: Given the entry "L1Q" , report its measured protein stability index.
Result: 4.67

Q: Recorded protein stability index for "L22E" , please?
Result: 2.98

Q: Given the entry "E3F" , report its measured protein stability index.
Result: 2.46

Q: I have this variant here, "S21W" , and I need its recorded protein stability index.
Result: 2.38

Q: Quick one: protein stability index for "R2S" ?
Result: 2.33

Q: Value lookup for protein stability index; key = "Q10F"
Result: 2.89

Q: Fill in the blank: the reported protein stability index of "E23M" is ____.
Result: 2.39

Q: Please report the recorded protein stability index for "A8C" .
Result: 1.64

Q: I would be grateful if you could share the reported protein stability index for "L6M" .
Result: 2.83

Q: protein stability index for "K4D" ?
Result: 4.01

Q: May I ask what protein stability index has been recorded for "L22N" ?
Result: 3.22

Q: Looking for the measured protein stability index of "S11H" , can you help?
Result: 2.75

Q: Entry under review: "M20Y" . Reported protein stability index?
Result: 3.15
